- assay_system: HusA L107A (Porphyromonas gingivalis, UniProt Q7MSY3, L107A)
- assay_summary: Tryptophan fluorescence quenching assay, HusA mutant L107A
- measurement_conditions: haemin
value_kind: pKd
// scale note: pKd = -log10(conc_M); give the bare number

// query pKd value for entry `C=CC1=C(C)c2cc3[nH]c(cc4nc(cc5[nH]c(cc1n2)c(C)c5CCC(=O)O)C(CCC(=O)O)=C4C)c(C)c3C=C.[Fe+3]`
5.26

---

- assay_system: HusA Y164A (Porphyromonas gingivalis, UniProt Q7MSY3, Y164A)
- Sequence (Q7MSY3 24-218 Y164A): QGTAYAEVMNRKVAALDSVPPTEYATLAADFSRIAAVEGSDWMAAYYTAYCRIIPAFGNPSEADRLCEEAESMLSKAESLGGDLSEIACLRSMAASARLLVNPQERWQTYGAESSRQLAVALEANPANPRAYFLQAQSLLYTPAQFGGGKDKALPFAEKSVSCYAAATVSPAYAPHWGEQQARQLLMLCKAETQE
- assay_summary: Tryptophan fluorescence quenching assay, HusA mutant Y164A
- Assay type: binding
- measurement_conditions: haemin
value_kind: Kd (µM)
Report only the number, with the unit µM understood.

Please tell me: Kd of `C=CC1=C(C)c2cc3[nH]c(cc4nc(cc5[nH]c(cc1n2)c(C)c5CCC(=O)O)C(CCC(=O)O)=C4C)c(C)c3C=C.[Fe+3]` , system HusA Y164A (Porphyromonas gingivalis, UniProt Q7MSY3, Y164A)?
13

---

- assay_system: HusA R121A (Porphyromonas gingivalis, UniProt Q7MSY3, R121A)
- assay_summary: Tryptophan fluorescence quenching assay, HusA mutant R121A
- measurement_conditions: haemin
value_kind: pKd
// scale note: pKd = -log10(conc_M); give the bare number

// query pKd value for entry C=CC1=C(C)c2cc3[nH]c(cc4nc(cc5[nH]c(cc1n2)c(C)c5CCC(=O)O)C(CCC(=O)O)=C4C)c(C)c3C=C.[Fe+3] [haemin]
5.17

---

- assay_system: HusA R139A (Porphyromonas gingivalis, UniProt Q7MSY3, R139A)
- assay_summary: Tryptophan fluorescence quenching assay, HusA mutant R139A
- measurement_conditions: haemin
value_kind: pKd
// scale note: pKd = -log10(conc_M); give the bare number

// query pKd value for entry `C=CC1=C(C)c2cc3[nH]c(cc4nc(cc5[nH]c(cc1n2)c(C)c5CCC(=O)O)C(CCC(=O)O)=C4C)c(C)c3C=C.[Fe+3]`
5.20

---

- assay_system: HusA W130N (Porphyromonas gingivalis, UniProt Q7MSY3, W130N)
- Sequence (Q7MSY3 24-218 W130N): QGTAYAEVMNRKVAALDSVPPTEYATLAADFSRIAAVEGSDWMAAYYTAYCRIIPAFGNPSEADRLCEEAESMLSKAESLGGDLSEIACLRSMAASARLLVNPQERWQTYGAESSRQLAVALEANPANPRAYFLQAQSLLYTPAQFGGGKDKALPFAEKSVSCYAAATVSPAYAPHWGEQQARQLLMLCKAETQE
- assay_summary: Tryptophan fluorescence quenching assay, HusA mutant W130N
- measurement_conditions: haemin
value_kind: pKd
// scale note: pKd = -log10(conc_M); give the bare number

// query pKd value for entry `C=CC1=C(C)c2cc3[nH]c(cc4nc(cc5[nH]c(cc1n2)c(C)c5CCC(=O)O)C(CCC(=O)O)=C4C)c(C)c3C=C.[Fe+3]`
4.80
